Attribute: % Inhibition of Creatine-d3 Transport
EXPERIMENTAL TARGET: creatine transporter (Mus musculus)
Construct: from tissue; host or cells: heart of C57Bl6 male mice (in vivo dosing)
Sequence (Q8VBW1 whole entry): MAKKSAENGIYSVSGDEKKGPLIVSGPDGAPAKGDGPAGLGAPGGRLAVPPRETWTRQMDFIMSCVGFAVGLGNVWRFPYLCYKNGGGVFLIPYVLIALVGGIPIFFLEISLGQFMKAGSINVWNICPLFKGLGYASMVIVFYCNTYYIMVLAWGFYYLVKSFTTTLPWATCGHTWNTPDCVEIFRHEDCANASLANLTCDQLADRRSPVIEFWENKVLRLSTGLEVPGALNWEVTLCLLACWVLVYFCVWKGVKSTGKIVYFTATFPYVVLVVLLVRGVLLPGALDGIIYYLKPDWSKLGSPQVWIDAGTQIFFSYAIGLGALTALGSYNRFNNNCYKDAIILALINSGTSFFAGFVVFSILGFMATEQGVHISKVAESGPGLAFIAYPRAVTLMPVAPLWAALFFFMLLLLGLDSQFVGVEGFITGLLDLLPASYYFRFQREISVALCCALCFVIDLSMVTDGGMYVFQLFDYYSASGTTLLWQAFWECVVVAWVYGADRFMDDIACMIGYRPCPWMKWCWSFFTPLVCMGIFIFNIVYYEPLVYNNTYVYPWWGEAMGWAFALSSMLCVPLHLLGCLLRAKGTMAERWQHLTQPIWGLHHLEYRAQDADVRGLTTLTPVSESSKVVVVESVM
METHOD: In vivo creatine transporter inhibition assay (creatine-d3 transport in heart tissue)
Parameters: species or system C57Bl6 male mice
ASSAY CONDITIONS: i.p. 250 mg/kg β-GPA equivalent (1.91 mmol/kg), creatine-d3 1 mg/kg i.p. 7 minutes after drug, hearts after one hour, relative to vehicle control, mean of three hearts
MEASURE NAME: % Inhibition of Creatine-d3 Transport

# COMPOUND, MEASURED
data = [
    ("C[C@@H](CC(=O)O)NC(=N)N", "1.4%"),
    ("C[C@H](CC(=O)O)NC(=N)N", "79.0%"),
    ("N=C(N)N1CC(C(=O)O)C1", "71.8%"),
    ("N=C(N)N1CCC(C(=O)O)C1 (stereo not shown)", "39.1%"),
    ("N=C(N)NC[C@H](N)C(=O)O", "4.5%"),
    ("CCC(CC(=O)O)NC(=N)N (stereo not shown)", "11.1%"),
    ("N=C(N)NC(CC(=O)O)C(F)(F)F (stereo not shown)", "24.7%"),
]

Value source: patent US10717704B2
